Biological target: Human MrgprX2 (Homo sapiens)
Construct: expressed in transfected cells
Assay: Human MrgprX2 antagonist FLIPR intracellular calcium mobilization assay
Assay type: cell-based
Conditions: antagonist activity, recombinant hMrgpMRGPRX2 expressing cells, read-out: Human MrgprX2 Antagonist pIC50 (converted)
Description: Potent and selective hMrgpMRGPRX2 compounds have been generated from compounds identified during a high throughput screening (HTS) campaign and followed up with cycles of structure activity based medicinal chemistry efforts. […] The assays used to determine potencies are functional read-out looking at intracellular calcium mobilization using the FLIPR™ technology. […]
MEASUREMENT_KIND: IC50 (nM)

Past entries and their recorded results:
>  <COMPOUND>
CC(C)C(=O)Nc1ncc(Cc2ccc(F)c(F)c2)s1

>  <SYSTEM_UNDER_TEST>
Human MrgprX2 (Homo sapiens)

>  <UNIT_ABBREV>
nM

>  <IC50>
7.94

$$$$
>  <COMPOUND>
CCN(C[C@H](C)O)C(=O)Nc1ncc(Cc2cc(F)cc(C#N)c2)s1

>  <SYSTEM_UNDER_TEST>
Human MrgprX2 (Homo sapiens)

>  <UNIT_ABBREV>
nM

>  <IC50>
39.8

$$$$
>  <COMPOUND>
O=C(Nc1ncc(Oc2ccccc2)s1)[C@H]1CCCN1

>  <SYSTEM_UNDER_TEST>
Human MrgprX2 (Homo sapiens)

>  <UNIT_ABBREV>
nM

>  <IC50>
2510

$$$$

A. O=C(Nc1ncc(Cc2cccc(F)c2)s1)N1CCC[C@H]1CO
B. C[C@]1(C(=O)Nc2ncc(Cc3cccc(F)c3)s2)CCOC1 (single isomer, unassigned)
C. CC1(C(=O)Nc2ncc(Cc3cc(F)cc(F)c3)s2)COC1
D. NS(=O)(=O)N1CCC[C@H]1C(=O)Nc1ncc(Cc2cccc(F)c2)s1
E. CCN(C[C@H](C)O)C(=O)Nc1ncc(Oc2ccc(C#N)cc2F)s1
Your job: order these 5 records by IC50, ascending. Form entry: labels listed in requested order.
E, C, B, A, D

P. CC(F)(F)C(=O)Nc1ncc(Cc2ccccc2F)s1
Q. CCN(C[C@H](C)O)C(=O)Nc1nc2ccccc2s1
R. C[C@H](O)CN(C)C(=O)Nc1ncc(CC2CCCC2)s1
S. C[C@H](O)CN(C)C(=O)Nc1ncc(Cc2ccc(F)cc2)s1
T. N#Cc1cc(F)cc(Oc2cnc(NC(=O)[C@H]3CCCN3S(N)(=O)=O)s2)c1
In this exercise, place the 5 compounds in ascending sequence of their recorded IC50. API: response body holds the labels in the requested order.
T, S, Q, R, P
(T: 31.6 nM, S: 200 nM, Q: 1000 nM, R: 2000 nM, P: 5010 nM)

---

Biological target: Human MrgprX2 (Homo sapiens)
Construct: expressed in transfected cells
Sequence (Q96LB1 1-330): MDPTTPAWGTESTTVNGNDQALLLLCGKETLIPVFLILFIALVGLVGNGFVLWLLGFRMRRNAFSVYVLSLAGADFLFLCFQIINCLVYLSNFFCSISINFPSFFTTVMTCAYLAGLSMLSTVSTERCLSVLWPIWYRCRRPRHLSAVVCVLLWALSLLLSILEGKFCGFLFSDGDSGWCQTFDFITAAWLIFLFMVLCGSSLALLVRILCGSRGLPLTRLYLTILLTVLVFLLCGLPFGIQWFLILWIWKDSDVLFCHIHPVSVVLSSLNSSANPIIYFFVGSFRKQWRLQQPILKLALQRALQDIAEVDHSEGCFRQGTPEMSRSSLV
Test: Human MrgprX2 antagonist FLIPR intracellular calcium mobilization assay
Assay type: cell-based
Conditions: antagonist activity, recombinant hMrgpMRGPRX2 expressing cells, read-out: Human MrgprX2 Antagonist pIC50 (converted)
MEASUREMENT_KIND: IC50 (nM)

# example entries with known answers
>  <MOLECULE>
CC(C)C(=O)Nc1ncc(Cc2cccc(C(F)(F)F)c2)s1 [Compound E002]

>  <IC50 / nM>
7940

$$$$
>  <MOLECULE>
CC(CO)N(C)C(=O)Nc1ncc(Cc2cccc(F)c2)s1 (centres unmarked) [Compound E128]

>  <IC50 / nM>
31.6

$$$$
>  <MOLECULE>
CCN(C[C@H](C)O)C(=O)Nc1ncc(Cc2cccc(Cl)c2)s1 [Compound E098]

>  <IC50 / nM>
3.16

$$$$

A. CC1(C(=O)Nc2ncc(Cc3cc(F)cc(F)c3)s2)CCOCC1 [Compound E044]
B. O=C(Nc1ncc(Cc2cccc(F)c2)s1)N1CCOC[C@@H]1CO [Compound E124]
Please indicate which entry, A or B , has the lower recorded IC50 value. Respond using the label that marks the chosen record.
A
(A: 15.8 nM, B: 794 nM)

---

Biological target: Human MrgprX2 (Homo sapiens, UniProt Q96LB1)
Construct: expressed in transfected cells
Sequence (Q96LB1 1-330): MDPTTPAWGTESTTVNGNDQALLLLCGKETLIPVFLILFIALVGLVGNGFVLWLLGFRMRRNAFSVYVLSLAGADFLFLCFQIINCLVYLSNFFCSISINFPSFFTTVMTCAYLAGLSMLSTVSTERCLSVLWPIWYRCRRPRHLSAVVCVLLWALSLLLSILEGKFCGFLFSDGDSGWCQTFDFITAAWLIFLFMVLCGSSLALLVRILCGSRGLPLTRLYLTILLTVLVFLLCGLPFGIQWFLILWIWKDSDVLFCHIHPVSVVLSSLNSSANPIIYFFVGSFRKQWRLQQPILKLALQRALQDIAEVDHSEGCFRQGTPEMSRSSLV
Test: Human MrgprX2 antagonist FLIPR intracellular calcium mobilization assay
Type: cell-based
Settings: antagonist activity, recombinant hMrgpMRGPRX2 expressing cells, read-out: Human MrgprX2 Antagonist pIC50 (converted)
MEASUREMENT_KIND: IC50 (nM)

Here is how some compounds turned out for IC50.
>  <COMPOUND_STRING>
CC(C)NC(=O)c1nc(F)c(Cc2ccc(F)cc2)s1

>  <IC50 (nM)>
6310

$$$$
>  <COMPOUND_STRING>
C[C@]1(C(=O)Nc2ncc(Cc3cccc(F)c3)s2)CCCN1S(N)(=O)=O

>  <IC50 (nM)>
3.16

$$$$

A. Cc1cncc(Oc2cnc(NC(=O)N(C)C[C@H](C)O)s2)c1
B. C[C@H](O)CN(C)C(=O)Nc1ncc(Oc2ccc(C#N)c(F)c2)s1
C. O=C(Nc1ncc(Cc2cccc(F)c2)s1)N1CCOC[C@H]1CO
Order the records so the highest IC50 appears first and the lowest last. Please respond by ranking the labels in the order requested.
C, A, B
(C: 7940 nM, A: 1580 nM, B: 3.16 nM)

---

Biological target: Human MrgprX2 (Homo sapiens, UniProt Q96LB1)
Construct: expressed in transfected cells
Sequence (Q96LB1 1-330): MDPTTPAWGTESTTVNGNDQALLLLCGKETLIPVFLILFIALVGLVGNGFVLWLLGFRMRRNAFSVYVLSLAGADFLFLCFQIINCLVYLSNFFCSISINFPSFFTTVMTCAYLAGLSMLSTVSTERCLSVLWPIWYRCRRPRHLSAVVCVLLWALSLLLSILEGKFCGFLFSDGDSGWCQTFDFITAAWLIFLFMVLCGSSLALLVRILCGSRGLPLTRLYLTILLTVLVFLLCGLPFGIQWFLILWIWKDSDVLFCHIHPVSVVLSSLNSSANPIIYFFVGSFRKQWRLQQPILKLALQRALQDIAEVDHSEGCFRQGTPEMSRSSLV
Assay: Human MrgprX2 antagonist FLIPR intracellular calcium mobilization assay
Type: cell-based
Details: antagonist activity, recombinant hMrgpMRGPRX2 expressing cells, read-out: Human MrgprX2 Antagonist pIC50 (converted)
MEASUREMENT_KIND: IC50 (nM)

Known IC50 results, listed for orientation:
>  <MOLECULE>
CN1CCC[C@@H]1C(=O)Nc1ncc(Oc2ccc(C#N)cc2)s1

>  <MEASUREMENT_KIND>
IC50

>  <UNIT_ABBREV>
nM

>  <OBSERVED_RESULT>
2510

$$$$
>  <MOLECULE>
O=C(Nc1ncc(Cc2cccc(F)c2)s1)N1CCC1CO (stereo not shown)

>  <MEASUREMENT_KIND>
IC50

>  <UNIT_ABBREV>
nM

>  <OBSERVED_RESULT>
631

$$$$
>  <MOLECULE>
CCN(C[C@H](C)O)C(=O)Nc1ncc(Oc2ccccc2C#N)s1

>  <MEASUREMENT_KIND>
IC50

>  <UNIT_ABBREV>
nM

>  <OBSERVED_RESULT>
316

$$$$
>  <MOLECULE>
CCN(C[C@H](C)O)C(=O)Nc1ncc(Oc2ccc(C)nc2)s1

>  <MEASUREMENT_KIND>
IC50

>  <UNIT_ABBREV>
nM

>  <OBSERVED_RESULT>
126

$$$$
>  <MOLECULE>
CCN(C[C@H](C)O)C(=O)Nc1ncc(Oc2cc(F)cc(C#N)c2)s1

>  <MEASUREMENT_KIND>
IC50

>  <UNIT_ABBREV>
nM

>  <OBSERVED_RESULT>
1.26

$$$$
>  <MOLECULE>
CN(CCO)C(=O)Nc1ncc(Cc2cccc(F)c2)s1

>  <MEASUREMENT_KIND>
IC50

>  <UNIT_ABBREV>
nM

>  <OBSERVED_RESULT>
2510

$$$$
>  <MOLECULE>
Cc1nc(NC(=O)C(C)C)sc1Cc1ccccc1

>  <MEASUREMENT_KIND>
IC50

>  <UNIT_ABBREV>
nM

>  <OBSERVED_RESULT>
631

$$$$
>  <MOLECULE>
CC1(C(=O)Nc2ncc(Cc3cccc(F)c3)s2)CCOC1 (stereo not shown)

>  <MEASUREMENT_KIND>
IC50

>  <UNIT_ABBREV>
nM

>  <OBSERVED_RESULT>
126

$$$$
>  <MOLECULE>
CCN(C[C@@H](C)O)C(=O)Nc1ncc(Oc2ccc(F)cc2)s1

>  <MEASUREMENT_KIND>
IC50

>  <UNIT_ABBREV>
nM

>  <OBSERVED_RESULT>
3.16

$$$$
>  <MOLECULE>
CC(C)C(=O)Nc1csc(C(=O)NCc2ccccc2)c1

>  <MEASUREMENT_KIND>
IC50

>  <UNIT_ABBREV>
nM

>  <OBSERVED_RESULT>
7940

$$$$

P. CC(C)C(=O)Nc1ncc(Oc2cccnc2)s1
Q. C[C@H](O)CN(C)C(=O)Nc1ncc(Oc2cncc(F)c2)s1
R. C[C@H](O)CN(C)C(=O)Nc1ncc(Cc2cc(F)cc(F)c2)s1
Sort (3 molecules) by IC50: min first. # output: labels, in the requested order
R, Q, P
